system: V79-379A; assay: Cytofluorimetric analysis of V79 379A chinese hamster cells incubated under oxic conditions with the compound (10e-4 M); assay type: cell-based; settings: Cricetulus griseus
READOUT_LABEL: Fluorescence
Answer with the figure and its unit, nothing else.

Worked examples, 2 molecules total:
O=[N+]([O-])c1nccn1CC(O)CNc1ccc(-c2cc3ccccn3c2)cc1 (stereo not drawn) | 107 AU
CCOC(=O)c1c(C)c(CN(C)CCCn2ccnc2[N+](=O)[O-])c2ccccn12 | 258 AU

# input for lookup
Task: Endpoint output: Fluorescence of Cc1c(C)n2c(CN(C)CC(O)Cn3ccnc3[N+](=O)[O-])c(C)c(=O)n2c1=O (stereo not drawn) . Value?
Result: 43 AU

Where do the numbers come from? From ChEMBL document CHEMBL1126049.
